Kindly supply the reported concentration at 1 h values for the records listed here.
- experiment: Plasma concentration in C57BL/6 mouse at 5 mg/kg, po after 1 hr
- Type: ADME, organism-based
- Parameters: dose 5 mg/kg, route oral
Returns: string containing the number followed by the unit.

Quick one: concentration at 1 h of COc1ccc(/C=C\c2cc(OC)c(OC)c(OC)c2)cc1O ?
2.3 ng/mL

Quick one: concentration at 1 h of COc1ccc(-c2cccc(-c3ccc(OC)c(O)c3)n2)c(OC)c1 ?
9.2 ng/mL

====

- experiment: Plasma concentration in C57BL/6 mouse at 5 mg/kg, po after 3 hrs
- Type: ADME, organism-based
- Parameters: dose 5 mg/kg, route oral
readout-kind: concentration at 3 h (ng/mL)
Give the value in ng/mL but do not write ng/mL after it.

Quick one: concentration at 3 h of COc1ccc(/C=C\c2cc(OC)c(OC)c(OC)c2)cc1O [COMBRETASTATIN A4] ?
2.1
